The measurements presented in this section are drawn from patent US20230127046A1.

# TARGET OF ASSAY: recombinant human G9a protein (Homo sapiens)
# Construct: purchased BPS Bioscience Inc. #51001
# Sequence (Q96KQ7 785-1210 limits assumed): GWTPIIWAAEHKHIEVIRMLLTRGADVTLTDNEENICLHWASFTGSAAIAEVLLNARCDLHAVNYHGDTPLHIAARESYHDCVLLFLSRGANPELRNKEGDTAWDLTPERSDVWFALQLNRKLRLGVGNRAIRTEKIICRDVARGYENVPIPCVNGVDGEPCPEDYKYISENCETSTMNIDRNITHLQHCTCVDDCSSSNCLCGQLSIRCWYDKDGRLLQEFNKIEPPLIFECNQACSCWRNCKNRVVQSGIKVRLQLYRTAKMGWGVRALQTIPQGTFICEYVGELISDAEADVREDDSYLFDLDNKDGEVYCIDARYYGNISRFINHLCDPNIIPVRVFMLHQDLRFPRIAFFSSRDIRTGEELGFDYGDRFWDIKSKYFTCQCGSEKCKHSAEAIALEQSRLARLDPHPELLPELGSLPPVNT
# ASSAY OVERVIEW: G9a inhibitory activity test (ALPHA)
# Type: biochemical
# PARTICULARS: read-out: Inhibitory activity (G9a IC50)
MEASURE NAME: IC50

1) CCCCC(NC(=O)c1[nH]c2c(c1C)C(=O)CC(C)(C)C2)C(=O)NCc1cccc(CN(C)CCN(C)C)n1 (stereo not shown)    50 to 200 nM
2) CCCCC(NC(=O)c1[nH]c2c(c1C)C(=O)CC(C)(C)C2)C(=O)NCc1ccc(CN)cc1 (stereo not shown)    < 50 nM
3) CCCC[C@H](NC(=O)c1[nH]c2c(c1CCC)C(=O)CC(C)(C)C2)C(=O)Nc1ccccc1    ≥ 200 nM
4) COc1ccc(NC(=O)C(CCC2CC2)NC(=O)c2sc(-c3ccccc3)nc2C)cn1 (stereo not shown)    ≥ 200 nM
5) COc1ccc(NC(=O)C(CCC2CC2)NC(=O)c2ccc(N(C)c3ccncc3)cc2)cn1 (stereo not shown)    < 50 nM
6) Cc1c(C(=O)N[C@@H](CCC2CC2)C(=O)N2CCc3c(OCCN(C)C)cccc32)[nH]c2c1C(=O)CC(C)(C)C2    50 to 200 nM
7) CCCCC(NC(=O)c1[nH]c2c(c1C)C(=O)CC(C)(C)C2)C(=O)NCc1ccc(CN2CCOCC2)cc1 (stereo not shown)    ≥ 200 nM

----------
pIC50 values for the molecules below.
# TARGET OF ASSAY: recombinant human G9a protein (Homo sapiens, UniProt Q96KQ7)
# Construct: purchased BPS Bioscience Inc. #51001
# Sequence (Q96KQ7 785-1210 limits assumed): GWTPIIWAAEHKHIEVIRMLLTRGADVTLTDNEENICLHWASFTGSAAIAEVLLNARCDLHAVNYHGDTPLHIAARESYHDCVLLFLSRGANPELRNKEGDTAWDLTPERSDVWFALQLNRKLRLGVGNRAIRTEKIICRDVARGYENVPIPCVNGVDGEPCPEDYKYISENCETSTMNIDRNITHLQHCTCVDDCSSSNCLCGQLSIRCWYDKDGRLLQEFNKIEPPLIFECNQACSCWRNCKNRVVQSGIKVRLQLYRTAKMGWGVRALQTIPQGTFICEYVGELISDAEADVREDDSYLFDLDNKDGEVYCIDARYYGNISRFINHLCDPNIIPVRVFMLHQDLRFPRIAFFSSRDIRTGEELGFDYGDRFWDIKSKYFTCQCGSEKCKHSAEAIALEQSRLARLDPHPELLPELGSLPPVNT
# ASSAY OVERVIEW: G9a inhibitory activity test (ALPHA)
# Format: biochemical
# PARTICULARS: read-out: Inhibitory activity (G9a IC50)
pIC50: −log10 of the molar value.
MEASURE NAME: pIC50

1) CCCC[C@H](NC(=O)c1[nH]c2c(c1C)C(=O)CC(C)(C)C2)c1nc2ccc(OCCCN3CCCCC3)cc2[nH]1 [Example 34-2]    6.70 to 7.30
2) CCCC[C@H](NC(=O)c1[nH]c2c(c1C)C(=O)CC(C)(C)C2)C(=O)N1CCc2c(OCC3CCN(C)CC3)cccc21 [Example 6-105]    ≤ 6.70
3) CCc1ncccc1NC(=O)C(CCC1CC1)NC(=O)c1[nH]c2c(c1C)C(=O)CC(C)(C)C2 (stereo not drawn) [Example 6-6]    6.70 to 7.30
4) CN(C)c1ccc(NC(=O)C(CCC2CC2)NC(=O)c2ccc(Nc3ccncc3)cc2)cn1 (stereo not drawn) [Example 6-85]    > 7.30
5) CCCC[C@H](NC(=O)c1[nH]c2c(c1CC)C(=O)CC(C)(C)C2)C(=O)N[C@@H](CO)c1ccccc1 [Example 6-46]    6.70 to 7.30
6) Cc1ccc2nc(C(CCC3CC3)NC(=O)c3[nH]c4c(c3C)C(=O)CC(C)(C)C4)n(C)c2c1 (stereo not drawn) [Example 30-4]    ≤ 6.70
7) Cc1c(C(=O)NC(CCC2CC2)C(=O)N2CCc3ccc(O)cc32)[nH]c2c1C(=O)CC(C)(C)C2 (stereo not drawn) [Example 1-136]    ≤ 6.70
8) COc1ccc(NC(=O)C(CCC2CC2)NC(=O)c2ccc(-c3ccncc3)cc2C)cn1 (stereo not drawn) [Example 6-50]    ≤ 6.70
9) COC(=O)c1ccc2c(c1)nc(C(CCC1CC1)NC(=O)c1[nH]c3c(c1C)C(=O)CC(C)(C)C3)n2C (stereo not drawn) [Example 30-3]    ≤ 6.70
10) Cc1c(C(=O)NC(CCC2CC2)C(=O)N2CCc3c(CN4CCCCC4)cccc32)[nH]c2c1C(=O)CC(C)(C)C2 (stereo not drawn) [Example 1-128]    > 7.30
11) CCCC[C@H](NC(=O)c1[nH]c2c(c1C)C(=O)CC(C)(C)C2)C(=O)NCc1ccc(N2CCN(CCC)CC2)cc1 [Example 22-4]    ≤ 6.70
12) COc1ccc(NC(=O)C(CCC2CC2)NC(=O)c2ccc(Nc3ccncc3)cc2)cn1 (stereo not drawn) [Example 6-49]    > 7.30
13) Cc1c(C(=O)NC(CCC2CC2)C(=O)N2CCc3c(O)cccc32)[nH]c2c1C(=O)CC(C)(C)C2 (stereo not drawn) [Example 1-117]    ≤ 6.70
14) CCCC[C@H](NC(=O)c1[nH]c2c(c1C)C(=O)CC(C)(C)C2)C(=O)Nc1ccccc1 [Example 6-33]    ≤ 6.70
15) Cc1c(C(=O)NC(CCC2CC2)C(=O)N2CCc3c(OCCN4CCCCC4)cccc32)[nH]c2c1C(=O)CC(C)(C)C2 (stereo not drawn) [Example 1-123]    6.70 to 7.30

----------
pIC50 values for the compounds below.
# TARGET OF ASSAY: recombinant human G9a protein (Homo sapiens)
# Construct: purchased BPS Bioscience Inc. #51001
# ASSAY OVERVIEW: G9a inhibitory activity test (ALPHA)
# Type: biochemical
# PARTICULARS: read-out: Inhibitory activity (G9a IC50)
pIC50: −log10 of the molar value.
MEASURE NAME: pIC50

1. CCCC[C@H](NC(=O)c1[nH]c2c(c1CC)C(=O)CC(C)(C)C2)C(=O)N[C@@H](CC)c1ccccc1    6.70 to 7.30
2. Cc1c(C(=O)NC(CCC2CC2)C(=O)Nc2ccc(CN(C)C)cc2)[nH]c2c1C(=O)CC(C)(C)C2 (stereo not drawn)    > 7.30
3. CCCCC(NC(=O)c1[nH]c2c(c1C)C(=O)CC(C)(C)C2)C(=O)NCc1ccc(CCCN)cc1 (stereo not drawn)    > 7.30
4. COc1ccc(NC(=O)C(CCC2CC2)NC(=O)c2ccc(CN3CCN(C)CC3)cc2)cn1 (stereo not drawn)    ≤ 6.70
5. Cc1c(C(=O)NC(CCC2CC2)C(=O)N2CCc3c(OCC4CCN(C)CC4)cccc32)[nH]c2c1C(=O)CC(C)(C)C2 (stereo not drawn)    ≤ 6.70
6. Cc1c(C(=O)NC(CCC2CC2)C(=O)Nc2ccccc2)[nH]c2c1C(=O)CC(C)(C)C2 (stereo not drawn)    6.70 to 7.30
7. CCCC[C@H](NC(=O)c1[nH]c2c(c1C)C(=O)CC(C)(C)C2)C(=O)Nc1cccc(N2CCN(C)CC2)c1    ≤ 6.70
8. CCCCC(NC(=O)c1[nH]c2c(c1C)C(=O)CC(C)(C)C2)C(=O)Nc1ccc(OCCN)nc1 (stereo not drawn)    6.70 to 7.30
9. Cc1c(C(=O)NC(CCC2CC2)C(=O)Nc2ccc(C#N)nc2)[nH]c2c1C(=O)CC(C)(C)C2 (stereo not drawn)    ≤ 6.70
10. CCCCC(NC(=O)c1[nH]c2c(c1C)C(=O)CC(C)(C)C2)C(=O)NCc1ccc(CN2CCC(C)(C)CC2)cc1 (stereo not drawn)    > 7.30
11. Cc1c(C(=O)NC(CCC2CC2)c2nc3c(CN(C)C4CCN(C)CC4)cccc3n2C)[nH]c2c1C(=O)CC(C)(C)C2 (stereo not drawn)    ≤ 6.70
12. CCc1cc(Br)ncc1NC(=O)C(CCC1CC1)NC(=O)c1[nH]c2c(c1C)C(=O)CC(C)(C)C2 (stereo not drawn)    > 7.30
13. CCCCC(NC(=O)c1[nH]c2c(c1C)C(=O)CC(C)(C)C2)C(=O)NCc1ccc(CN2CCC(F)(F)CC2)cc1 (stereo not drawn)    ≤ 6.70
14. COc1ccc(NC(=O)C(CCC2CC2)NC(=O)c2ccc(Nc3ccncc3)cc2C(F)(F)F)cn1 (stereo not drawn)    > 7.30
15. COc1ccc(NC(=O)C(CCC2CC2)NC(=O)Cc2ccccc2)cn1 (stereo not drawn)    ≤ 6.70
